Target or system: Type-1 angiotensin II receptor (Homo sapiens, UniProt P30556)
Sequence (P30556 whole entry): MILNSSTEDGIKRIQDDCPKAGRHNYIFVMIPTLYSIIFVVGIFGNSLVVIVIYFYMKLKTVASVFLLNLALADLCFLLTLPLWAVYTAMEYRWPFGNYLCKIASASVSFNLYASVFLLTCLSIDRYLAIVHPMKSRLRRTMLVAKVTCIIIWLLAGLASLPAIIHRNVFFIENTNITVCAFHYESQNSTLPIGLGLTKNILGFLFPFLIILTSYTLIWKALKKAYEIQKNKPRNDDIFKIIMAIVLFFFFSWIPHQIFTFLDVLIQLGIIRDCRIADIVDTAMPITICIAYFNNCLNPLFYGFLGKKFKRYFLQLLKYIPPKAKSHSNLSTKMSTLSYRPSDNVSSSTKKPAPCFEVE
Compiled notes: published IC50 values involving Type-1 angiotensin II receptor (Homo sapiens, UniProt P30556).
Assay metric: IC50 (nM)

1. CCCCc1ncc(/C=C2/C(=O)NC(=O)N2CCCC)n1Cc1ccc(-c2ccccc2-c2nn[nH]n2)cc1 ... 1.4
2. CCCc1nc(CC)c(C(=O)NCc2ccccc2[S+]([O-])c2ccccc2)n1Cc1ccc(-c2ccccc2S(=O)(=O)NC(=O)OCCC(C)C)cc1F (stereo not given) ... 0.6
3. CCc1nc2ccc(NC(=O)N(C)C(C)C)cc2c(=O)n1Cc1ccc(-c2ccccc2S(=O)(=O)NC(=O)COCC(C)C)cc1F ... 65

---

pIC50: −log10 of the molar value.
Compiled notes: published pIC50 values involving Type-1 angiotensin II receptor (Homo sapiens).
Assay metric: pIC50

1) CCCc1nc2c(C)cc(C(=O)NCCc3ccccc3)cc2n1Cc1ccc(-c2ccccc2C(=O)O)cc1 ... 8.52
2) CCc1nc2ccc(NC(=O)N(C)C(C)C)cc2c(=O)n1Cc1ccc(-c2ccccc2S(=O)(=O)NC(=O)OCCC2CC2)cc1F ... 8.09
3) Cc1nc2ccc(NC(=O)N(C)C(C)C)cc2c(=O)n1Cc1ccc(-c2ccccc2S(=O)(=O)NC(=O)OCCC(C)C)cc1F ... 7.58
4) CCNC(=O)Nc1ccc2nc(CC)n(Cc3ccc(-c4ccccc4S(=O)(=O)NC(=O)OCCC4CC4)cc3F)c(=O)c2c1 ... 7.92
5) CCCc1nc(CN2CCN(c3ccccc3)CC2)c(C(=O)O)n1Cc1ccc(-c2ccccc2-c2nnn[nH]2)cc1 ... 8.30
6) CCCc1nc2c(C)cc(C(=O)NCCN3CCCC3)cc2n1Cc1ccc(-c2ccccc2S(=O)(=O)Nc2onc(C)c2C)cc1 ... 7.02
7) CCCCC(=O)N(Cc1ccccc1)c1ccc2ncn(Cc3ccc(-c4ccccc4-c4nnnn4C)cc3)c(=O)c2c1 ... 8.24
8) CCCc1nc(CC)c(C(=O)OCc2ccccc2-c2ccccc2)n1Cc1ccc(-c2ccccc2S(=O)(=O)NC(=O)OCCC(C)C)cc1F ... 8.52
9) CCCc1nc(CC)c(C(=O)OCc2ccccc2C(=O)C(C)(C)C)n1Cc1ccc(-c2ccccc2S(=O)(=O)NC(=O)OCCC(C)C)cc1F ... 9.52
10) CCCc1nc(CC)c(C(=O)OCCCOCc2ccccc2)n1Cc1ccc(-c2ccccc2S(=O)(=O)NC(=O)OCCC(C)C)cc1F ... 10.00
11) CCCc1nc(CC)c(C(=O)NCc2ccccc2Sc2ccccc2)n1Cc1ccc(-c2ccccc2S(=O)(=O)NC(=O)OCCC(C)C)cc1F ... 9.40
12) CCCCc1ncc(/C=C2\C(=O)N(CCCC)C(=O)N2Cc2cccs2)n1Cc1ccc(C(=O)O)cc1 ... 9.22

---

Compiled notes: published IC50 values involving Type-1 angiotensin II receptor (Homo sapiens, UniProt P30556).
Target or system: Type-1 angiotensin II receptor (Homo sapiens, UniProt P30556)
Sequence (P30556 whole entry): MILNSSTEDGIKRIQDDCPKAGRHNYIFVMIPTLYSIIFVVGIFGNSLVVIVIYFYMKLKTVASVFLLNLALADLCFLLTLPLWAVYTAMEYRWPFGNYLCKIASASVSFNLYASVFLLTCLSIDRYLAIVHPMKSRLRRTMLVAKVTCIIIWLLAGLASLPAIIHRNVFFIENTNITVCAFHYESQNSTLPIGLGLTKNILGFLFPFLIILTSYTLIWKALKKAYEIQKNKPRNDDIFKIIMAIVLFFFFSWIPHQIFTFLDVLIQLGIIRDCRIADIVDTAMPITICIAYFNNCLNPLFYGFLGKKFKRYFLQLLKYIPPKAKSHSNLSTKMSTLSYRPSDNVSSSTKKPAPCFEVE
Assay metric: IC50

1. CCCc1nc(CC)c(C(=O)OCc2ccccc2C(=O)c2ccccc2)n1Cc1ccc(-c2ccccc2S(=O)(=O)NC(=O)OCCC(C)C)cc1F ... 570 nM
2. CCc1nc2ccn(CC(=O)OCc3ccccc3)c(=O)c2n1[C@H]1CCc2cc(-c3ccccc3-c3nnn[nH]3)ccc21 ... 19.8 nM
3. CCCCc1ncc(/C=C2/C(=O)N(CCCC)C(=O)N2Cc2cc(C)cs2)n1Cc1ccc(C(=O)O)cc1 ... 1.5 nM
4. CCc1nc2ccn(Cc3ccncc3)c(=O)c2n1[C@H]1CCc2cc(-c3ccccc3-c3nnn[nH]3)ccc21 ... 250 nM
5. CCCCOC(=O)NS(=O)(=O)c1ccccc1-c1ccc(Cn2c(CCC)nc(CC)c2C(=O)OCc2ccccc2Oc2ccccc2)c(F)c1 ... 0.6 nM
6. CCCc1nc(CN(Cc2ccccc2)C(=O)OCC(C)C)c(C(=O)O)n1Cc1ccc(-c2ccccc2-c2nn[nH]n2)cc1 ... 20 nM
7. CCCCc1ncc(/C=C2/C(=O)N(CCCC)C(=O)N2Cc2ccsc2)n1Cc1ccc(C(=O)O)cc1 ... 0.9 nM
8. CCCc1nc(CN2CCN(c3ccccc3Cl)CC2)c(C(=O)O)n1Cc1ccc(-c2ccccc2-c2nnn[nH]2)cc1 ... 2 nM
9. Cc1ccnc(SCc2cc(=O)c(OCc3ccccc3)co2)n1 ... > 79000 nM
10. Cc1ccnc(SCc2cc(=O)c(OC(=O)c3cccc([N+](=O)[O-])c3)co2)n1 ... > 79000 nM
11. CCCc1nc(CC)c(C(=O)OC)n1Cc1ccc(-c2ccccc2S(=O)(=O)NC(=O)OCCC(C)C)cc1F ... 1 nM
12. CCCCc1ncc(/C=C2\C(=O)N(CCCC)C(=O)N2Cc2csc(N)n2)n1Cc1ccc(C(=O)O)cc1 ... 0.5 nM
13. CCCCc1ncc(/C=C2/C(=O)N(CCCC)C(=O)N2Cc2cccs2)n1Cc1ccc(C(=O)O)cc1 ... 0.7 nM
14. CCCc1nc(CC)c(C(=O)OCCCCOc2ccccc2)n1Cc1ccc(-c2ccccc2S(=O)(=O)NC(=O)OCCC(C)C)cc1F ... 0.2 nM
15. CCCCc1ncc(/C=C2/C(=O)N(CCCC)C(=O)N2Cc2csc(C)n2)n1Cc1ccc(C(=O)OC)cc1 ... 1.9 nM
16. CCCCc1nc2ccc(NC(=O)N(C)C(C)C)cc2c(=O)n1Cc1ccc(-c2ccccc2S(=O)(=O)NC(=O)OCCC2CC2)cc1F ... 1.2 nM
17. Cc1ccnc(SCc2cc(=O)c(OC(=O)c3ccccc3Cl)co2)n1 ... > 79000 nM
18. CCCCc1ncc(/C=C2/C(=O)N(CCCC)C(=O)N2Cc2ccc(C(F)(F)F)cc2)n1Cc1ccc(C(=O)OC)cc1 ... 159 nM

---

Target or system: UniProt:P30556
Sequence (P30556 whole entry): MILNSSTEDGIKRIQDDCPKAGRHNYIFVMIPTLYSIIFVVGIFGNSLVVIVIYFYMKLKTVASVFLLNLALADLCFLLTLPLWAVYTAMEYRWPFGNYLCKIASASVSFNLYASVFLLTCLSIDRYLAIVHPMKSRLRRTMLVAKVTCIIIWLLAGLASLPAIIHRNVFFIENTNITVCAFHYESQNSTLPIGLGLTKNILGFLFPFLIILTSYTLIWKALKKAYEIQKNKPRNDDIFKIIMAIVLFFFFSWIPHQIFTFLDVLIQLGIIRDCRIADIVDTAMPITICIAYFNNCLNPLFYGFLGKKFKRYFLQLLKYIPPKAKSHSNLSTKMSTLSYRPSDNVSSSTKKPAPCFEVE
Compiled notes: published IC50 values involving UniProt:P30556.
Assay metric: IC50 (µM)

1. CCCCN(Cc1ccccc1)C(=O)C#CCOC(=O)c1c(CC)nc(CCC)n1Cc1ccc(-c2ccccc2-c2nnn[nH]2)cc1 ... 0.01
2. CCCc1nc(CN2CCN(c3ccc(F)cc3)CC2)c(C(=O)O)n1Cc1ccc(-c2ccccc2-c2nn[nH]n2)cc1 ... 0.003
3. CCCc1nc2c(C)cc(C(=O)NCCc3ccc(OC)cc3)cc2n1Cc1ccc(-c2ccccc2S(=O)(=O)Nc2onc(C)c2C)cc1 ... 0.076
4. CCCCc1ncc(/C=C2\C(=O)N(CCCC)C(=O)N2CCCC)n1Cc1ccc(C(=O)O)cc1 ... 0.0005
5. CCCCc1ncc(/C=C2/C(=O)N(CCCC(F)(F)F)C(=O)N2Cc2csc(C)n2)n1Cc1ccc(C(=O)OC)cc1 ... 0.07
6. CCCCc1ncc(/C=C2/C(=O)NC(=O)N2Cc2cccs2)n1Cc1ccc(C(=O)O)cc1 ... 0.0023
7. COC(=O)c1ccc(CN(C(=O)c2ccccc2)c2ccc3ncn(Cc4ccc(-c5ccccc5-c5nnnn5C)cc4)c(=O)c3c2)cc1 ... 0.0096
8. CCCc1nc2c(C)cc(C(=O)NCc3ccc(OC)c(OC)c3)cc2n1Cc1ccc(-c2ccccc2C(=O)Nc2nnn[nH]2)cc1 ... 0.0329
9. CCCNC(=O)c1cc(C)c2nc(CCC)n(Cc3ccc(-c4ccccc4S(=O)(=O)Nc4onc(C)c4C)cc3)c2c1 ... 0.373
10. CCCc1nc2c(C)cc(C)nc2n1[C@H]1CCc2cc(-c3ccccc3-c3nnn[nH]3)ccc21 ... 0.0133
11. CCCc1nc2c(n1Cc1ccc(-c3ccccc3S(=O)(=O)Nc3onc(C)c3C)c(C#N)c1)C(=O)CCCC2 ... 0.016
12. CCCCc1ncc(/C=C2/C(=O)N(CCCC)C(=O)N2c2ccccc2)n1Cc1ccc(C(=O)OC)cc1 ... 0.0061
13. CCCc1nc2c(C)cc(C(=O)Nc3ccccc3OC)cc2n1Cc1ccc(-c2ccccc2S(=O)(=O)Nc2onc(C)c2C)cc1 ... 0.419
14. CCCc1nc2c(C)cc(C(=O)NCCc3ccccc3F)cc2n1Cc1ccc(-c2ccccc2C(=O)Nc2nnn[nH]2)cc1 ... 0.09
15. CCCc1nc(CC)c(C(=O)NCCCOc2ccccc2)n1Cc1ccc(-c2ccccc2S(=O)(=O)NC(=O)OCCC(C)C)cc1F ... 0.0003
16. Cc1nc(C(=O)O)nc2c1CCC(=O)N2Cc1ccc(-c2ccccc2-c2nnn[nH]2)cc1 ... 0.011
17. CCCc1nc(CN(Cc2ccccc2)C(=O)Nc2ccccc2)c(C(=O)O)n1Cc1ccc(-c2ccccc2-c2nnn[nH]2)cc1 ... 0.002
18. CCc1nc2c(C)cn(Cc3ccccc3C#N)c(=O)c2n1[C@H]1CCc2cc(-c3ccccc3-c3nnn[nH]3)ccc21 ... 0.007
19. CCc1nc2ccn(Cc3cccc(C)c3)c(=O)c2n1[C@H]1CCc2cc(-c3ccccc3-c3nnn[nH]3)ccc21 ... 0.0369
20. CCCc1nc(CC)c(C(=O)OC(C(=O)c2ccccc2)c2ccccc2)n1Cc1ccc(-c2ccccc2S(=O)(=O)NC(=O)OCCC(C)C)cc1F (centres undefined) ... 0.0008
21. CCCc1nc(C(=O)N2CCN(c3ccccn3)CC2)c(C(=O)O)n1Cc1ccc(-c2ccccc2-c2nnn[nH]2)cc1 ... 0.002
22. CCCCOC(=O)NS(=O)(=O)c1ccccc1-c1ccc(Cn2c(CCC)nc(CC)c2C(=O)OCc2ccccc2C(=O)c2ccccc2)c(F)c1 ... 0.0002
23. CCCc1nc(CC)c(C(=O)OCCCSc2ccccc2)n1Cc1ccc(-c2ccccc2S(=O)(=O)NC(=O)OCCC(C)C)cc1F ... 0.0002
24. CCCOC(=O)NS(=O)(=O)c1ccccc1-c1ccc(Cn2c(CCC)nc(CC)c2C(=O)OCc2ccccc2-c2cccs2)c(F)c1 ... 0.0005
